Can you tell me IC50 for the items I'm about to list?
- measured-target: DRB1*1501 (Homo sapiens, UniProt P01903+P01911)
- assay-protocol: biochemical
- Type: binding
No end group written: not given here.

sequence VDFIDTQLSICEQAE [Peptide 89.0078] , IC50 observed: 0.609 µM

Lookup result for RLTVSKLMSQLLNIP [Peptide 89.0100] ; measured IC50: > 20 µM

# IC50 (sequence: NGWFYVEAVVEKKTG [Peptide 90.0029] ) is > 20 µM

// IC50 value for KWGVLILALLRYKCG [Peptide 89.0027] : 3.74 µM

Note to self: IC50 recorded for IHFLKGCIISYVNSK [Peptide 89.0147] was > 20 µM

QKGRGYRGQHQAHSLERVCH [Peptide F025.05] has a reported IC50 of > 20 µM

// LIKFFQGSVISFVNS [Peptide 89.0135] : IC50 value = > 20 µM

sequence NGWFYVEAVIDRQTG [Peptide 90.0062] , IC50 observed: > 20 µM

Record TRPRTLHELCEVLEE [Peptide 1543.42] . Reported IC50: > 20 µM

For record NTEVETQQMVQQVES [Peptide 89.0059] the listed IC50 is > 20 µM

The sequence identified as PPLLITTNINPMLDA [Peptide 89.0139] registered its IC50 at 4.78 µM

Item: STWHWTGCNKNTGIL [Peptide 1601.38] | IC50: > 20 µM

====

- measured-target: A*0206 (Homo sapiens, UniProt P04439, D140Y/D185E/D98H/E176V/E277Q/F33Y/G131W/G231S/I119V/I121R/I166T/I218V/L300P/L318F/N151K/N90K/P208A/P217A/Q86G/Q94H/R138H/R169H/T345S)
- assay-protocol: biochemical
- Format: binding
No end group written: not given here.
In plain terms, low IC50, meaning strictly below 0.8 µM, gives label 1, and everything else gives label 0.

Prompt line: Hello, I'm reviewing records and need to know if IC50 of ILQHTQELFI [Peptide 9013.0212] is below 0.8 µM. Could you check?
Response line: label 0

Prompt line: Is it true that IC50 reported for GTFQQSTQEV [Peptide 9013.0175] is less than 0.8 µM?
Response line: label 0

Prompt line: Is the reported IC50 for ILNTTYLWWV [Peptide 9013.0195] strictly below 0.8 µM?
Response line: label 1

Prompt line: IC50 under 0.8 µM? Item: TLGIMIGVLV [Peptide 9013.0251]
Response line: label 0

Prompt line: # strict comparison: is reported IC50 < 0.8 µM? input = YLIGTQQAT [Peptide 9013.0025]
Response line: label 0

Prompt line: Below 0.8 µM on IC50? Entry GLFQQSTQEL [Peptide 9013.0176]
Response line: label 0

Prompt line: Hello, I'm reviewing records and need to know if IC50 of IQNDTGFYT [Peptide 9013.0034] is below 0.8 µM. Could you check?
Response line: label 1

Prompt line: Lab log: compare recorded IC50 with 0.8 µM; is it strictly lower for YTNWKFIYL [Peptide 1578.47] ?
Response line: label 1

Prompt line: Strictly below 0.8 µM in IC50? TVNNSGSYV [Peptide 9013.0064]
Response line: label 0

Prompt line: API: query returns whether the sequence falls strictly under 0.8 µM in IC50. Query: LLLSNGNRTL [Peptide 9013.0227]
Response line: label 0

Prompt line: Decide: IC50 of TVESTPFNV [Peptide 9013.0013] strictly below 0.8 µM?
Response line: label 0

Prompt line: Determine if RILQQPLFI [Peptide 1545.03] shows IC50 strictly lower than 0.8 µM.
Response line: label 0

Prompt line: Does this sequence meet the criterion IC50 < 0.8 µM? NVAEGKEVV [Peptide 9013.0015]
Response line: label 0
